Tested on: β-galactosidase in CMV-LacZ C2C12 myoblasts
assay_remarks: CMV-LacZ secondary screen in C2C12 myoblasts (β-Gal stabilizing assay)
Format: cell-based, mouse
measurement_conditions: 10 uM; SU9516 analogs, C2C12 CMV-LacZ, N=2
reported_endpoint: CMV-LACZ in Myoblasts, value relative to DMSO

[[record]]
compound = "Cc1cc(C)c(/C=C2\\C(=O)Nc3ccccc32)[nH]1 [NCGC00094381-04]"
measured = 0.9770

[[record]]
compound = "Cc1[nH]c(/C=C2\\C(=O)Nc3ccc(S(=O)(=O)Cc4c(Cl)cccc4Cl)cc32)c(C)c1C(=O)C1CCCN1CN1CCCC1 (stereo not shown)"
measured = 2.4909

[[record]]
compound = "Cc1ccccc1/C=C1\\C(=O)Nc2ccc(F)cc21"
measured = 1.1118

[[record]]
compound = "COc1ccc(C(=O)/C=C2/C(=O)Nc3ccccc32)cc1OC"
measured = 1.1417

[[record]]
compound = "Cc1ncc(/C=C2\\C(=O)Nc3ccccc32)[nH]1"
measured = 1.0942

[[record]]
compound = "O=C1Nc2ccccc2/C1=C/c1cccnc1"
measured = 0.9959

[[record]]
compound = "O=C(O)COc1ccccc1/C=C1\\C(=O)Nc2ccc(Br)cc21"
measured = 1.1811

[[record]]
compound = "Cc1[nH]c(C=C2C(=O)Nc3ccccc32)c(C)c1CCC(=O)O"
measured = 1.1352

[[record]]
compound = "CN1CCN(c2ccccc2/C=C2/C(=O)Nc3ccccc32)CC1"
measured = 0.9294

[[record]]
compound = "O=Nc1c(-c2c(O)[nH]c3cc(Br)ccc23)[nH]c2ccccc12"
measured = 1.0782


---

System: β-galactosidase in CMV-LacZ C2C12 myotubes
assay_remarks: CMV-LacZ secondary screen in C2C12 myotubes (β-Gal stabilizing assay)
Type: cell-based, mouse
measurement_conditions: 40 uM; SU9516 analogs, C2C12 CMV-LacZ, N=2
Description: In order to determine compounds that acted to stabilize β-gal in myogenic cells, a CMV-LacZ C2C12 cell line was used in a secondary screen. The EGFP gene from the pEGFP (Clontech) vector was replaced by LACZ PCR product with digests of the vector/PCR product performed using EcoRI (NEB) and NotI (NEB) and ligated using T4 DNA Ligase (NEB) following standard procedures to produce the CMV-LACZ vector. […]
Consider the following compounds and their measured CMV-LACZ in Myotubes, value relative to DMSO readings.
reported_endpoint: CMV-LACZ in Myotubes, value relative to DMSO

[[record]]
compound = "Cc1ccc2c(c1)/C(=C/c1ccccc1C)C(=O)N2"
system_tested = "β-galactosidase in CMV-LacZ C2C12 myotubes"
measured = 0.8129

[[record]]
compound = "O=Nc1c(-c2c(O)[nH]c3ccccc23)[nH]c2ccccc12 [NCGC00015545-02]"
system_tested = "β-galactosidase in CMV-LacZ C2C12 myotubes"
measured = 0.4770

[[record]]
compound = "O=C1Nc2ccccc2/C1=C\\c1cccn1-c1ccc(OC(F)(F)F)cc1"
system_tested = "β-galactosidase in CMV-LacZ C2C12 myotubes"
measured = 1.3290

[[record]]
compound = "O=Nc1c(-c2c(O)[nH]c3cc(Br)ccc23)[nH]c2ccccc12"
system_tested = "β-galactosidase in CMV-LacZ C2C12 myotubes"
measured = 0.5420

[[record]]
compound = "COc1ccc(C(=O)/C=C2/C(=O)Nc3ccccc32)cc1"
system_tested = "β-galactosidase in CMV-LacZ C2C12 myotubes"
measured = 6.8624

